TARGET_OR_SYSTEM: Bromodomain-containing protein 4 (Homo sapiens)
PROTOCOL_DESCRIPTION: Inhibition of human N-terminal His6-tagged BRD4 BD1-BD2 (57 to 550 residues) expressed in EScherichia coli BL21(DE3) after 1 hr by Alexa-647-conjugated probe based TR-FRET assay
PROPERTY_LABEL: Ki (nM)
// return numeric value only (unit: nM, not printed)

Answered examples (5):
CCS(=O)(=O)Nc1cnc2c(c1)-c1cn(C)c(=O)cc1OCCCCc1cc(Cl)ccc1O2 ... 3.4
Cn1cc2c(cc1=O)OCCCCc1cc(Cl)ccc1Oc1ncc(CS(C)(=O)=O)cc1-2 ... 11
CCOC(=O)Nc1ccc(Oc2ccccc2)c(-c2nn(C)c(=O)cc2OC)c1 ... 1100
CCS(=O)(=O)c1cnc2c(c1)-c1cn(C)c(=O)cc1OCCCCc1cc(Cl)ccc1O2 ... 8.9
CCOc1cc(=O)n(C)cc1-c1cc(NS(=O)(=O)CC)ccc1Oc1ccccc1 ... 4.4

Task item: Kindly indicate its recorded Ki. Item: COC(=O)C[C@@H]1N=C(c2ccc(Cl)cc2)c2c(sc(C)c2C)-n2c(C)nnc21
Reply: 16.7

Task item: Name the recorded Ki of the item CCOc1cc(=O)n(C)cc1-c1cc(NS(=O)(=O)CC)ccc1OC1CCC(F)(F)CC1 in your answer.
Reply: 110

* * *

Test system: Liver
PROTOCOL_DESCRIPTION: Unbound intrinsic clearance in rat liver microsomes
Assay type: ADME, microsome
Measured CL free, listed per entry.
Reply numerically in mL/min/kg, unit not repeated.

CCS(=O)(=O)c1ccc2c(c1)-c1cn(C)c(=O)cc1OCCCCc1ccccc1O2 ... 533
CCOc1cc(=O)n(C)cc1-c1cc(S(=O)(=O)CC)ccc1Oc1ccc(F)cc1F ... 103
CCOc1cc(=O)n(C)cc1-c1cc(NS(=O)(=O)CC)ccc1OC1CCC(F)(F)CC1 ... 183

Task item: Identify the reported CL free for the following entry. CCS(=O)(=O)Nc1cnc2c(c1)-c1cn(C)c(=O)cc1OCCCCc1cc(F)cc(F)c1O2
Reply: 75

Task item: Quickly give me recorded CL free for CCS(=O)(=O)Nc1ccc2c(c1)-c1cn(C)c(=O)cc1OCCCCc1cc(F)cc(F)c1O2
Reply: 317

Task item: Respond only with CL free recorded for CCS(=O)(=O)c1ccc2c(c1)-c1cn(C)c(=O)cc1OCCc1ccccc1O2
Reply: 167

Task item: Tell us which CL free value is on record for CCOc1cc(=O)n(C)cc1-c1cc(NS(=O)(=O)CC)ccc1Oc1ccc(Cl)cc1
Reply: 88.3

* * *

TARGET_OR_SYSTEM: Bromodomain-containing protein 4 (Homo sapiens, UniProt O60885)
PROTOCOL_DESCRIPTION: Inhibition of human N-terminal His6-tagged BRD4 BD1-BD2 (57 to 550 residues) expressed in EScherichia coli BL21(DE3) after 1 hr by Alexa-647-conjugated probe based TR-FRET assay
PROPERTY_LABEL: pKi
// scale note: pKi = -log10(conc_M); give the bare number

COc1cc(=O)n(C)nc1-c1cc(NS(C)(=O)=O)ccc1Oc1ccccc1 ... 6.85
CCS(=O)(=O)Nc1ccc(Oc2ccccc2)c(-c2cn(C)c(=O)cc2OC)c1 ... 8.09
CCS(=O)(=O)Nc1ccc(Oc2ccc(F)cc2F)c(-c2cn(C)c(=O)cc2OCCN2CCOCC2)c1 ... 6.64

Task item: Specify the recorded pKi for CCS(=O)(=O)Nc1ccc2c(c1)-c1cn(C)c(=O)cc1OCCCCCc1cc(Cl)ccc1O2 , system: Bromodomain-containing protein 4 (Homo sapiens, UniProt O60885).
Reply: 8.55

Task item: Give measured pKi for CCOc1cc(=O)n(C)cc1-c1cc(NS(=O)(=O)CC)ccc1Oc1ccc(Cl)cc1 (Bromodomain-containing protein 4 (Homo sapiens, UniProt O60885)).
Reply: 8.59

Task item: Please report pKi with Bromodomain-containing protein 4 (Homo sapiens, UniProt O60885) for item CCOc1cc(=O)n(C)cc1-c1cc(CS(C)(=O)=O)ccc1Oc1ccc(F)cc1F .
Reply: 6.92

Task item: Lab note: record pKi of CCS(=O)(=O)Nc1ccc(Oc2ccc(F)cc2F)c(-c2cn(C)c(=O)cc2OCC(F)(F)F)c1 tested on Bromodomain-containing protein 4 (Homo sapiens, UniProt O60885).
Reply: 7.66

Task item: Provide the reported pKi (system: Bromodomain-containing protein 4 (Homo sapiens, UniProt O60885)) for CCS(=O)(=O)Nc1ccc(Oc2ccc(F)cc2F)c(-c2cn(C)c(=O)cc2OCC(C)C)c1
Reply: 8.15

Task item: Print Bromodomain-containing protein 4 (Homo sapiens, UniProt O60885) pKi for COc1cc(=O)n(C)cc1-c1ccccc1Oc1ccccc1 .
Reply: 6.35

Task item: Fill in pKi for CCOc1cc(=O)n(C)cc1-c1cc(NS(=O)(=O)CC)ccc1Oc1cccnc1 tested with Bromodomain-containing protein 4 (Homo sapiens, UniProt O60885).
Reply: 7.77

* * *

TARGET_OR_SYSTEM: Bromodomain-containing protein 4 (Homo sapiens, UniProt O60885)
PROTOCOL_DESCRIPTION: Inhibition of human N-terminal His6-tagged BRD4 BD1-BD2 (57 to 550 residues) expressed in EScherichia coli BL21(DE3) after 1 hr by Alexa-647-conjugated probe based TR-FRET assay
Quick reference for pKi among some molecules
Interpret pKi as the negative base-10 log of the concentration measured in mol/L.

Task item: Provide pKi, system Bromodomain-containing protein 4 (Homo sapiens, UniProt O60885), entry COc1cc(=O)n(C)cc1-c1cc(NS(C)(=O)=O)ccc1Oc1ccccc1
Reply: 7.24

* * *

TARGET_OR_SYSTEM: Bromodomain-containing protein 4 (Homo sapiens, UniProt O60885)
PROTOCOL_DESCRIPTION: Inhibition of human N-terminal His6-tagged BRD4 BD1-BD2 (57 to 550 residues) expressed in EScherichia coli BL21(DE3) after 1 hr by Alexa-647-conjugated probe based TR-FRET assay
Listed here: items and their measured pKi.
The value called pKi is obtained by taking minus log10 of the concentration in mol/L.

Cn1cc2c(cc1=O)OCCCCc1cc(Cl)ccc1Oc1ccc(CS(C)(=O)=O)cc1-2 ... 8.42
COc1cc(=O)n(C)nc1-c1cc(N)ccc1Oc1ccccc1 ... 5.77

Task item: Quote pKi reported for CCS(=O)(=O)Nc1ccc2c(c1)-c1cn(C)c(=O)cc1OCCCCc1cc(Cl)ccc1O2 please.
Reply: 8.82

Task item: Could you please provide reported pKi for CCNC(=O)Nc1ccc(Oc2ccccc2)c(-c2nn(C)c(=O)cc2OC)c1 ? Thanks!
Reply: 5.72

Task item: Look up and state reported pKi for COc1cc(=O)n(C)nc1-c1cc(NC(C)=O)ccc1Oc1ccccc1
Reply: 6.05

Task item: Consider the molecule CNc1cc(=O)n(C)nc1-c1ccccc1 and give its recorded pKi.
Reply: 3.80

Task item: Indicate its recorded pKi; the molecule in question is CCNc1cc(=O)n(C)cc1-c1cc(NS(=O)(=O)CC)ccc1Oc1ccc(F)cc1F
Reply: 7.85

Task item: Note down pKi recorded for CCS(=O)(=O)c1ccc2c(c1)-c1cn(C)c(=O)cc1OCCCCc1ccccc1O2
Reply: 8.72

* * *

TARGET_OR_SYSTEM: Bromodomain-containing protein 4 (Homo sapiens, UniProt O60885)
PROTOCOL_DESCRIPTION: Inhibition of human N-terminal His6-tagged BRD4 BD1-BD2 (57 to 550 residues) expressed in EScherichia coli BL21(DE3) after 1 hr by Alexa-647-conjugated probe based TR-FRET assay
Reported pKi by item:
Just the number, please; pKi means minus log10 of the concentration in mol/L.

Observe how each entry below is paired with its result.
CCOc1cc(=O)n(C)cc1-c1cc(NS(=O)(=O)CC)ccc1Oc1ccc(OC(F)(F)F)cc1 ... 8.26
CCS(=O)(=O)Nc1cnc2c(c1)-c1cn(C)c(=O)cc1OCCCCc1cc(F)cc(F)c1O2 ... 9.10

Task item: Give the reported value of pKi for this record: CCS(=O)(=O)Nc1ccc(Oc2ccc(F)cc2F)c(-c2cn(C)c(=O)cc2OC2COC2)c1
Reply: 8.05

Task item: Hello, please tell me recorded pKi for this one: CCS(=O)(=O)c1ccc2c(c1)-c1cn(C)c(=O)cc1OCCCc1ccccc1O2
Reply: 8.14

Task item: Name the recorded pKi of the compound listed here: CCOc1cc(=O)n(C)cc1-c1cc(NS(=O)(=O)CC)cnc1Oc1ccc(F)cc1F
Reply: 8.06

Task item: In one line, give reported pKi of the entry CCS(=O)(=O)Nc1ccc(Oc2ccc(F)cc2F)c(-c2cn(C)c(=O)cc2OCC(C)(C)O)c1 .
Reply: 7.15

Task item: Using known records, supply pKi for CCOc1cc(=O)n(C)cc1-c1cc(NS(=O)(=O)CC)ccc1Oc1ccc(F)cc1
Reply: 8.25

Task item: # return recorded pKi for input CCS(=O)(=O)Nc1ccc(Oc2ccc(F)cc2F)c(-c2cn(C)c(=O)cc2OC)c1
Reply: 7.89

Task item: Look up and report measured pKi for this entry: CCS(=O)(=O)c1ccc2c(c1)-c1cn(C)c(=O)cc1OCCCCc1cc(Cl)ccc1O2
Reply: 8.70

Task item: Return reported pKi. Input compound: CCS(=O)(=O)c1ccc2c(c1)-c1cn(C)c(=O)cc1OCCc1ccccc1O2
Reply: 7.00
